readout_kind: melting point

Reference set, count: 2
COC(=O)CCc1cc(C)cc(NC(C)=O)n1 | 82 °C
COc1ccc(C2CCN(c3c(C)c(C)c4c(c3C)[C@@H](c3ccc(C)cc3)C(C)(C)O4)CC2)cc1OC | 102 to 106 °C

What value of melting point has been recorded for this entry: COc1cc2c(cc1OC(=O)C=Cc1ccccc1)C1Cc3c(Cl)cc(OC)c(OC(=O)C=Cc4ccccc4)c3CN1CC2 (configuration not stated)
240 to 242 °C

# iterate: Cc1nnc2cc(-c3ccccc3)c3cc(Cl)ccc3n12
254 to 255 °C

# iterate: CCOC(=O)c1c(C)cc2cnc(C)nc2c1C
84 to 86 °C

# iterate: CCCCCCCCCCCCC1CC(=O)CCC1=O (configuration not stated)
73 °C

# iterate: CSC(=O)C(C#N)C(=O)Nc1ccc(C(F)(F)F)cc1 (configuration not stated)
196 to 198 °C

Data provenance is a melting point compilation (Tetko et al.; mined from patent text by program, amines drawn as free bases though some values may be those of a salt).
